For each record, write down the corresponding normalized RNA/DNA level with ligand (log10).
B1: library; a variant is named by its letters at N, in order (parent)
chain: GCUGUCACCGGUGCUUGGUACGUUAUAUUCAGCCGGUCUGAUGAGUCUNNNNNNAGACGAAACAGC

variants of: B1; assay: normalized RNA/DNA level with ligand (relative to sTRSVctl = 100) (log10 (% of sTRSVctl)); HEK293T overexpressing SLC46A1; ligand concentration (+) RNA-Seq: 6 mM; higher = less ribozyme self-cleavage, higher mRNA level; settings: with (6R,S)-folinic acid; ligand present: yes
Answer using only a numeral; do not append any unit.

GET /value?item= GCUGUCACCGGUGCUUGGUACGUUAUAUUCAGCCGGUCUGAUGAGUCUAAUUAGAGACGAAACAGC &field=normalized RNA/DNA level with ligand (log10) returns 2.01

Query GCUGUCACCGGUGCUUGGUACGUUAUAUUCAGCCGGUCUGAUGAGUCUCUCUUUAGACGAAACAGC yields normalized RNA/DNA level with ligand (log10) of 2.02

Input GCUGUCACCGGUGCUUGGUACGUUAUAUUCAGCCGGUCUGAUGAGUCUUCGCGCAGACGAAACAGC . Output normalized RNA/DNA level with ligand (log10): 2.03

normalized RNA/DNA level with ligand (log10) for GCUGUCACCGGUGCUUGGUACGUUAUAUUCAGCCGGUCUGAUGAGUCUCUAAUGAGACGAAACAGC is 2.02

Reported normalized RNA/DNA level with ligand (log10) for GCUGUCACCGGUGCUUGGUACGUUAUAUUCAGCCGGUCUGAUGAGUCUCGACUGAGACGAAACAGC was 2.01

Form field normalized RNA/DNA level with ligand (log10), entry GCUGUCACCGGUGCUUGGUACGUUAUAUUCAGCCGGUCUGAUGAGUCUGCUCUGAGACGAAACAGC : 2.03

// normalized RNA/DNA level with ligand (log10) lookup, variant = GCUGUCACCGGUGCUUGGUACGUUAUAUUCAGCCGGUCUGAUGAGUCUUCUGCCAGACGAAACAGC , result: 2.02

The reported normalized RNA/DNA level with ligand (log10) of the variant GCUGUCACCGGUGCUUGGUACGUUAUAUUCAGCCGGUCUGAUGAGUCUCAAAGAAGACGAAACAGC was 1.99

Per the records, this variant ( GCUGUCACCGGUGCUUGGUACGUUAUAUUCAGCCGGUCUGAUGAGUCUGAAGAAAGACGAAACAGC ) has normalized RNA/DNA level with ligand (log10) equal to 2.03

Entry GCUGUCACCGGUGCUUGGUACGUUAUAUUCAGCCGGUCUGAUGAGUCUACCGGUAGACGAAACAGC — recorded normalized RNA/DNA level with ligand (log10) = 2.05

The reported value for GCUGUCACCGGUGCUUGGUACGUUAUAUUCAGCCGGUCUGAUGAGUCUAGGGUAAGACGAAACAGC in terms of normalized RNA/DNA level with ligand (log10) is 2.02

Measured normalized RNA/DNA level with ligand (log10) of GCUGUCACCGGUGCUUGGUACGUUAUAUUCAGCCGGUCUGAUGAGUCUGGCCAUAGACGAAACAGC : 2.01

According to the records, this variant GCUGUCACCGGUGCUUGGUACGUUAUAUUCAGCCGGUCUGAUGAGUCUGAUCGAAGACGAAACAGC displays normalized RNA/DNA level with ligand (log10) of 2.02

// recorded normalized RNA/DNA level with ligand (log10) for GCUGUCACCGGUGCUUGGUACGUUAUAUUCAGCCGGUCUGAUGAGUCUGACCUCAGACGAAACAGC : 2.04

In plain terms, GCUGUCACCGGUGCUUGGUACGUUAUAUUCAGCCGGUCUGAUGAGUCUCAUUUCAGACGAAACAGC has a documented normalized RNA/DNA level with ligand (log10) of 2

Measured normalized RNA/DNA level with ligand (log10), GCUGUCACCGGUGCUUGGUACGUUAUAUUCAGCCGGUCUGAUGAGUCUUGUGUGAGACGAAACAGC : 1.94

For GCUGUCACCGGUGCUUGGUACGUUAUAUUCAGCCGGUCUGAUGAGUCUAAUACAAGACGAAACAGC the variant record lists normalized RNA/DNA level with ligand (log10) as 2

The value of normalized RNA/DNA level with ligand (log10) measured for the variant GCUGUCACCGGUGCUUGGUACGUUAUAUUCAGCCGGUCUGAUGAGUCUUAGACUAGACGAAACAGC turned out to be 1.98

Form: variant = GCUGUCACCGGUGCUUGGUACGUUAUAUUCAGCCGGUCUGAUGAGUCUUGUACGAGACGAAACAGC ; normalized RNA/DNA level with ligand (log10) = 1.98

Lab note: measured normalized RNA/DNA level with ligand (log10) of GCUGUCACCGGUGCUUGGUACGUUAUAUUCAGCCGGUCUGAUGAGUCUCCGCUAAGACGAAACAGC was 2.02

Reported normalized RNA/DNA level with ligand (log10) for GCUGUCACCGGUGCUUGGUACGUUAUAUUCAGCCGGUCUGAUGAGUCUAAUCUUAGACGAAACAGC was 2.01

Briefly, normalized RNA/DNA level with ligand (log10) measured for GCUGUCACCGGUGCUUGGUACGUUAUAUUCAGCCGGUCUGAUGAGUCUUUAGAAAGACGAAACAGC : 1.98

So for GCUGUCACCGGUGCUUGGUACGUUAUAUUCAGCCGGUCUGAUGAGUCUCAACACAGACGAAACAGC , the logged normalized RNA/DNA level with ligand (log10) turned out to be 2.01

So, GCUGUCACCGGUGCUUGGUACGUUAUAUUCAGCCGGUCUGAUGAGUCUCCCGAUAGACGAAACAGC ? Its normalized RNA/DNA level with ligand (log10) was 2.02

Recorded normalized RNA/DNA level with ligand (log10) (variant GCUGUCACCGGUGCUUGGUACGUUAUAUUCAGCCGGUCUGAUGAGUCUUCUGGGAGACGAAACAGC ): 1.98

Documented normalized RNA/DNA level with ligand (log10) of GCUGUCACCGGUGCUUGGUACGUUAUAUUCAGCCGGUCUGAUGAGUCUUAGACGAGACGAAACAGC : 1.97

Data point: GCUGUCACCGGUGCUUGGUACGUUAUAUUCAGCCGGUCUGAUGAGUCUCGAGUAAGACGAAACAGC ; normalized RNA/DNA level with ligand (log10) = 2

The recorded normalized RNA/DNA level with ligand (log10) for GCUGUCACCGGUGCUUGGUACGUUAUAUUCAGCCGGUCUGAUGAGUCUCGGUUUAGACGAAACAGC is 2.06

Lab note: GCUGUCACCGGUGCUUGGUACGUUAUAUUCAGCCGGUCUGAUGAGUCUUAAGAUAGACGAAACAGC gave normalized RNA/DNA level with ligand (log10) of 2.01

Data point: GCUGUCACCGGUGCUUGGUACGUUAUAUUCAGCCGGUCUGAUGAGUCUCGGUUAAGACGAAACAGC ; normalized RNA/DNA level with ligand (log10) = 2.02

Input GCUGUCACCGGUGCUUGGUACGUUAUAUUCAGCCGGUCUGAUGAGUCUAACCAGAGACGAAACAGC . Output normalized RNA/DNA level with ligand (log10): 2.01

Record GCUGUCACCGGUGCUUGGUACGUUAUAUUCAGCCGGUCUGAUGAGUCUUUGCGUAGACGAAACAGC , field normalized RNA/DNA level with ligand (log10): 2.03

normalized RNA/DNA level with ligand (log10) in this record for GCUGUCACCGGUGCUUGGUACGUUAUAUUCAGCCGGUCUGAUGAGUCUCGAUGCAGACGAAACAGC : 2.01

Lookup result for GCUGUCACCGGUGCUUGGUACGUUAUAUUCAGCCGGUCUGAUGAGUCUAUAUGCAGACGAAACAGC ; measured normalized RNA/DNA level with ligand (log10): 1.99

The reported normalized RNA/DNA level with ligand (log10) of the variant GCUGUCACCGGUGCUUGGUACGUUAUAUUCAGCCGGUCUGAUGAGUCUCCGUGAAGACGAAACAGC was 2.05

The variant listed as GCUGUCACCGGUGCUUGGUACGUUAUAUUCAGCCGGUCUGAUGAGUCUUUGUCGAGACGAAACAGC shows normalized RNA/DNA level with ligand (log10) equal to 2.03

# variant GCUGUCACCGGUGCUUGGUACGUUAUAUUCAGCCGGUCUGAUGAGUCUUCCGGUAGACGAAACAGC ; its normalized RNA/DNA level with ligand (log10) = 2.02

For record GCUGUCACCGGUGCUUGGUACGUUAUAUUCAGCCGGUCUGAUGAGUCUUCCAUUAGACGAAACAGC the listed normalized RNA/DNA level with ligand (log10) is 2.01

# normalized RNA/DNA level with ligand (log10) (variant: GCUGUCACCGGUGCUUGGUACGUUAUAUUCAGCCGGUCUGAUGAGUCUAACAUCAGACGAAACAGC ) is 2.06

Kindly note the recorded normalized RNA/DNA level with ligand (log10) for GCUGUCACCGGUGCUUGGUACGUUAUAUUCAGCCGGUCUGAUGAGUCUUAGCAAAGACGAAACAGC , which is 1.98
